# Tested on: NCI-H522 lung
# TEST_DETAILS: NCI tumour cell line growth inhibition, 48 h
QUANTITY: TGI (µM)
Your answer is read as µM, so omit the unit and give the number.

# get_value(readout= TGI, system= NCI-H522 lung) for CN(C)CC1CC/C(=C\c2ccc3c(c2)OCO3)C1=O (centres undefined)
8.51

# get_value(readout= TGI, system= NCI-H522 lung) for COc1nc(C#CC2CCCCC2)nc(OC)n1
6.33

# get_value(readout= TGI, system= NCI-H522 lung) for O=C(N=Nc1ccccc1Cl)NNc1ccccc1Cl
52.7

# get_value(readout= TGI, system= NCI-H522 lung) for O=C1/C(=C/c2ccc(F)cc2)CN(C(=O)CCN2CCC(=NO)CC2)C/C1=C\c1ccc(F)cc1
3.53
